# reported IC50 (ng/mL), inhibition of FVIIa-induced IL-8 release by MDA-MB-231 cells; entries follow
- TESTED_TARGET: tissue factor (TF) on the surface of TF-positive tumor cells (human, UniProt P13726 33-295)
- ASSAY_DETAILS: cell-based or functional assay
MEASURED_ENDPOINT: IC50 (ng/mL), inhibition of FVIIa-induced IL-8 release by MDA-MB-231 cells

BINDER: 2B12B10-hz1 (antibody, human IgG1, kappa, V domains shown, Humanized IgG1 kappa) VH: EVQLVESGGGLVQPGGSLRLSCAASGFAFSDSGMHWVRQAPGKGLEWVAYISRDSNTIYYADSVKGRFTISRDNAKNSLYLQMNSLRAEDTAVYYCGRRYYGDYFDYWGQGTLVTVSS VL: DIVLTQSPATLSLSPGERATLSCRASQRVTNYLHWYQQKPGQSPRLLIKYASQSISGIPARFSGSGSGTDFTLTISSLEPEDFAVYFCQQSYNWPLTFGQGTKVEIKR
MEASURED: 128 ng/mL

BINDER: 30G11B7-hz1 (antibody, human IgG1, kappa, V domains shown, Humanized IgG1 kappa) VH: EVQLVESGGGLVKPGGSLRLSCAASGFTFSDYGMFWVRQAPGKGLEWVAYISRGSTTIYYADSVKGRFTISRDNAKNSLYLQMNSLRAEDTAVYFCTRRYYGDYFDYWGQGTLVTVSS VL: EIVLTQSPDFQSVTPKEKVTITCRASQSISNYLHWYQQKPDQSPKLLIKYASQSISGVPSRFSGSGSGTDFTLTINSLEAEDAATYFCQQSYNWPLTFGQGTKVEIKR
MEASURED: 129 ng/mL

BINDER: 27H8H3-hz1 (antibody, human IgG1, kappa, V domains shown, Humanized IgG1 kappa) VH: QVQLVQSGAEVKKPGASVKVSCKASGYTFTTYWMHWVRQAPGQGLEWMGMIDPSDSYTSYAQKFQGRVTLTVDTSTSTAYMELSSLRSEDTAVYYCTRGSGPGLFAYWGQGTLVTVSS VL: DIQETQSPSSLSASVGDRVTITCRASQGISNYLNWYQQKPGKAPKLLIYHTSRLHSGVPSRFSGSVSGTDFTLTISSLQPEDFATYFCQQGNTLPYTFGQGTKVEIKR
MEASURED: 463 ng/mL

BINDER: 22F11H5-hz1 (antibody, human IgG1, kappa, V domains shown, Humanized IgG1 kappa) VH: QVQLVQSGAEVKQPGASVKVSCKASGYTFTTYWMHWVRQAPGQGLEWMGMIDPSDSYTTYAQKFQGRVTLTVDTSTSTAYMELSSLRSEDTAVYYCARGSGPGLFAYWGQGTLVTVSS VL: DIQETQSPSSLSASVGDRVTITCRASQDIRNYLNWYQQKPGKAPKLLIYHTSRLQSGVPSRFSGSGSGTDYTLTISSLQPEDFATYYCQQGNMPPYTFGQGTKVEIKR
MEASURED: 180 ng/mL
